- STUDY_TARGET: UniProtKB Q6W5P4
- Sequence (Q6W5P4 whole entry): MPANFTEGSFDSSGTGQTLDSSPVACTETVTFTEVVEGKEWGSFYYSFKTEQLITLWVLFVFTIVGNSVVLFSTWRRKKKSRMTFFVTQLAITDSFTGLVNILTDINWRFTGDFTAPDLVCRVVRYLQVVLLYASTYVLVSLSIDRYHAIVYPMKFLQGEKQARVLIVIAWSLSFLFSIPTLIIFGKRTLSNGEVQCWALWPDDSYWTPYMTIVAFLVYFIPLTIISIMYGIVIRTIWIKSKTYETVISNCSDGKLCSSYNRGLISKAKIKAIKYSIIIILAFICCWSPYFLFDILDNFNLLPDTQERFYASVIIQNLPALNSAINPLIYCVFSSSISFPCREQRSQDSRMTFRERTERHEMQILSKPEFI
- PROCEDURE_DETAILS: Antagonist activity at neuropeptide S receptor (unknown origin) expressed in CHO cells assessed as inhibition of NPS-induced calcium mobilization after 10 mins by fluorescence assay
- Assay type: functional, cell-based
- APPLIED_CONDITIONS: read-out: IC50
Measured IC50 of individual entries
Enter your answer as a number in nM; do not include the unit.

Worked examples, 3 compounds total:
- Cc1nc2ccccn2c1P(=S)(c1ccccc1)c1ccccc1: 1000
- C[n+]1cc(P(=S)(c2ccccc2)c2ccccc2)n2ccccc21: 2500
- Cc1ccc(/C=C/C[n+]2c(C)c(P(=S)(c3ccccc3)c3ccccc3)n3ccccc32)cc1: 9

Here is another compound to look at.
Send back UniProtKB Q6W5P4 IC50 of Cc1c(P(=S)(c2ccccc2)c2ccccc2)n2ccccc2[n+]1CCc1ccccc1 only.
73

---

- PROCEDURE_DETAILS: Plasma concentration in mouse at 10 mg/kg, ip after 12 hrs
- Assay type: ADME, organism-based
- Set-up: dose 10 mg/kg, route intraperitoneal
MEASUREMENT_NAME: concentration at 12 h (nM)
Express it in nM; write the number only.

Specify reported concentration at 12 h for the compound shown: Cc1c(P(=S)(c2ccccc2)c2ccccc2)n2ccccc2[n+]1C/C=C/c1ccccc1.[Br-]
126

---

- PROCEDURE_DETAILS: Metabolic stability in mouse liver microsomes assessed as compound remaining after 15 mins in presence NADPH
- Type: ADME, Microsome
- APPLIED_CONDITIONS: read-out: Stability
MEASUREMENT_NAME: remaining at 0.25 h (%)
Supply the numeric figure in %, leaving out any unit text.

Before answering, review these 2 worked examples.
* Cc1c(P(=S)(c2ccccc2)c2ccccc2)n2ccccc2[n+]1C/C=C/c1ccccc1.[Br-] | 72
* CCC(C)(CCN1CCOCC1)N(Cc1cc2ccccc2n(C)c1=O)C(=O)C1CCCCC1 (stereo not drawn) | 0

Let's switch to this compound now.
Give remaining at 0.25 h for O=C(NCc1ccc(F)cc1)N1CCN2C(=O)OC(c3ccccc3)(c3ccccc3)C2C1 (stereo not drawn)
29

---

Below, each entry is listed alongside its reported IC50.
- STUDY_TARGET: Neuropeptide S receptor (Homo sapiens, UniProt Q6W5P4)
- PROCEDURE_DETAILS: Displacement of [125I]Tyr10-NPS from neuropeptide S receptor (unknown origin)
Please state the figure in µM; there is no need to write the unit.

- COc1ccc(C2c3c(ccc4ccccc34)OC3N=CN(CCN4CCOCC4)C(=N)C32)cc1OC (centres undefined): 0.19

Jot down IC50 (Neuropeptide S receptor (Homo sapiens, UniProt Q6W5P4)) of Cc1c(P(=S)(c2ccccc2)c2ccccc2)[n+]2ccccc2n1C.[I-] .
0.084

Find IC50 for CCC(C)(CCN1CCOCC1)N(Cc1cc2ccccc2n(C)c1=O)C(=O)C1CCCCC1 (centres undefined) on Neuropeptide S receptor (Homo sapiens, UniProt Q6W5P4) and write it down.
0.0013

Enter measured IC50, system Neuropeptide S receptor (Homo sapiens, UniProt Q6W5P4), for the molecule shown: O=C(NCc1ccc(F)cc1)N1CCN2C(=O)OC(c3ccccc3)(c3ccccc3)C2C1 (centres undefined)
0.048

---

- PROCEDURE_DETAILS: Metabolic stability in mouse liver microsomes assessed as compound remaining after 30 mins in absence NADPH
- Type: ADME, Microsome
- APPLIED_CONDITIONS: read-out: Stability
MEASUREMENT_NAME: remaining at 0.5 h
Record the result as number plus unit.

Completed entries (count: 2):
- CCC(C)(CCN1CCOCC1)N(Cc1cc2ccccc2n(C)c1=O)C(=O)C1CCCCC1 (stereo not drawn): 97%
- Cc1c(P(=S)(c2ccccc2)c2ccccc2)n2ccccc2[n+]1C/C=C/c1ccccc1.[Br-]: 102%

Next:
Respond only with remaining at 0.5 h recorded for O=C(NCc1ccc(F)cc1)N1CCN2C(=O)OC(c3ccccc3)(c3ccccc3)C2C1 (stereo not drawn)
96%

---

- PROCEDURE_DETAILS: Metabolic stability in mouse liver microsomes assessed as compound remaining after 30 mins in presence NADPH
- Assay type: ADME, Microsome
- APPLIED_CONDITIONS: read-out: Stability
MEASUREMENT_NAME: remaining at 0.5 h (%)
# unit: % | format: bare number

• CCC(C)(CCN1CCOCC1)N(Cc1cc2ccccc2n(C)c1=O)C(=O)C1CCCCC1 (stereo not drawn) = 0

For Cc1c(P(=S)(c2ccccc2)c2ccccc2)n2ccccc2[n+]1C/C=C/c1ccccc1.[Br-] , write its remaining at 0.5 h.
46

Name the recorded remaining at 0.5 h of the item O=C(NCc1ccc(F)cc1)N1CCN2C(=O)OC(c3ccccc3)(c3ccccc3)C2C1 (stereo not drawn) in your answer.
9

---

- STUDY_TARGET: Neuropeptide S receptor (Homo sapiens)
- PROCEDURE_DETAILS: Antagonist activity at neuropeptide S receptor (unknown origin) assessed as intracellular calcium level by cell based assay
- Assay type: functional
MEASUREMENT_NAME: pIC50
Bear in mind: pIC50 is minus log10 of a mol/L concentration; give just that figure.

- O=C(NCc1ccccc1)N1CCN2C(=O)OC(c3ccccc3)(c3ccccc3)C2C1 (stereo not given): 7.59

Provide measured pIC50 value, entry: COc1ccc(C2c3c(ccc4ccccc34)OC3N=CN(CCN4CCOCC4)C(=N)C32)cc1OC (stereo not given)
5.85

Supply recorded pIC50 for O=C(NCc1ccc(F)cc1)N1CCN2C(=O)OC(c3ccccc3)(c3ccccc3)C2C1 (stereo not given) here.
7.55

Find the measured pIC50 of Cc1c(P(=S)(c2ccccc2)c2ccccc2)[n+]2ccccc2n1C.[I-] and report it.
7.29

Identify measured pIC50 associated with O=C1c2ccccc2C(=O)C1(c1ccccc1)N1CCN(Cc2ccccc2)CC1
7.57

---

- PROCEDURE_DETAILS: Plasma concentration in mouse at 10 mg/kg, ip after 4 hrs
- Assay type: ADME, organism-based
- Set-up: dose 10 mg/kg, route intraperitoneal
MEASUREMENT_NAME: concentration at 4 h

Entry Cc1c(P(=S)(c2ccccc2)c2ccccc2)n2ccccc2[n+]1C/C=C/c1ccccc1.[Br-] needs its concentration at 4 h filled in; supply it.
245 nM

---

- PROCEDURE_DETAILS: Plasma concentration in mouse at 10 mg/kg, ip after 0.083 hrs
- Type: ADME, organism-based
- Parameters: dose 10 mg/kg, route intraperitoneal
MEASUREMENT_NAME: concentration at 0.083 h (nM)
Give a bare numeral; the unit nM is implied.

Fill in concentration at 0.083 h for record Cc1c(P(=S)(c2ccccc2)c2ccccc2)n2ccccc2[n+]1C/C=C/c1ccccc1.[Br-]
1500

---

- STUDY_TARGET: Neuropeptide S receptor (Homo sapiens)
- PROCEDURE_DETAILS: Antagonist activity at neuropeptide S receptor (unknown origin) expressed in CHO cells assessed as inhibition of NPS-induced ERK activation after 20 mins by HTRF assay
- Format: cell-based
pIC50: −log10 of the molar value.
Entry flag: 1.0 if pIC50 reaches 8; 0.0 if it does not.

* Cc1c(P(=S)(c2ccccc2)c2ccccc2)n2ccccc2[n+]1C/C=C/c1ccccc1.[Br-] | 1.0

Now, please, on to the next molecule.
Does pIC50 meet or surpass 8 for Cc1c(P(=S)(c2ccccc2)c2ccccc2)[n+]2ccccc2n1C.[I-] ?
0.0

---

- PROCEDURE_DETAILS: Metabolic stability in mouse liver microsomes assessed as compound remaining after 60 mins in presence NADPH
- Format: ADME, Microsome
- APPLIED_CONDITIONS: read-out: Stability
Quick reference for remaining at 1 h among some compounds
Write it as a number; the unit % goes unstated.

Some solved entries appear below for comparison.
• Cc1c(P(=S)(c2ccccc2)c2ccccc2)n2ccccc2[n+]1C/C=C/c1ccccc1.[Br-] = 26
• CCC(C)(CCN1CCOCC1)N(Cc1cc2ccccc2n(C)c1=O)C(=O)C1CCCCC1 (stereo not drawn) = 0

Field: next compound
Name the recorded remaining at 1 h of the compound listed here: O=C(NCc1ccc(F)cc1)N1CCN2C(=O)OC(c3ccccc3)(c3ccccc3)C2C1 (stereo not drawn)
2
